- Target System: 17-beta-hydroxysteroid dehydrogenase type 3 (Homo sapiens, UniProt P37058)
- Sequence (P37058 whole entry): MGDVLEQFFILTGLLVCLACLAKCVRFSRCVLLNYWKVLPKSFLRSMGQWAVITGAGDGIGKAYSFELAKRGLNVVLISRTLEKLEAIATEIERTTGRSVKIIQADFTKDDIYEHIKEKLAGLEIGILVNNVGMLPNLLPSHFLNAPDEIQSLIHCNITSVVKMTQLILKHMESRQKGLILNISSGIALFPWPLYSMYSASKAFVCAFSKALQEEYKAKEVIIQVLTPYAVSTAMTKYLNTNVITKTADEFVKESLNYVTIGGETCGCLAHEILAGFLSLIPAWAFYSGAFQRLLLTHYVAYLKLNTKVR
- Assay Method Text: The ability to inhibit the Type-3 17-beta- hydroxysteroid dehydrogenase activity in transfected human embryonic kidney (HEK)-293 cells experiment 3
- Format: cell-based, HEK293
Reported Property: pIC50
Scale: negative log10 of molar concentration, which is what pIC50 denotes.

{"Compound": "C[C@]12CC[C@@H](O)C[C@H]1CC[C@@H]1[C@@H]2CC[C@]2(C)C(=O)CC[C@@H]12", "Reported Property": "pIC50", "Observed Value": 6.74}

Consider the record given below.
Tested on 17-beta-hydroxysteroid dehydrogenase type 3 (Homo sapiens, UniProt P37058): C[C@]12CC[C@](O)(Cc3ccccc3)CC1CC[C@@H]1[C@@H]2CC[C@]2(C)C(=O)CC[C@@H]12 (some centres not stated) . Observed pIC50: 7.01

====

- Target System: 17-beta-hydroxysteroid dehydrogenase type 3 (Homo sapiens)
- Assay Method Text: Ability to inhibit the Type-3 17-beta- hydroxysteroid dehydrogenase activity transfected in human embryonic kidney (HEK)-293 cells experiment 2
- Type: cell-based, HEK293
Reported Property: pIC50
Scale: negative log10 of molar concentration, which is what pIC50 denotes.

Consider C[C@]12CCC(=O)C=C1CC[C@@H]1[C@@H]2CC[C@]2(C)C(=O)CC[C@@H]12 . Its measured pIC50 is 6.19
